- tested_system: T1, Human Galectin-3 protein (Acro Biosystems, GA3-H5129) (human, UniProt P17931 2-250)
- T1 construct: Bought protein; also called Gal3-ECD-His; Gal3-His; not shown: linker-spaced 6-histidine tag
- T1 sequence (P17931 2-250): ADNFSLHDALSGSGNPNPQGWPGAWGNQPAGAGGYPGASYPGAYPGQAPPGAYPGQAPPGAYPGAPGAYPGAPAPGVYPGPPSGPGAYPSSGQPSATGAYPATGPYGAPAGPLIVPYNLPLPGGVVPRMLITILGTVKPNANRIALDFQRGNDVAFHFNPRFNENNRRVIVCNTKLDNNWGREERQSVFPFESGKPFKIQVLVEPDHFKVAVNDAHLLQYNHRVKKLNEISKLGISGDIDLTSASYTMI
- experiment_summary: ELISA, blocking of INSR binding to coated Gal3
property_name: Gal3-INSR Blocking @ 3 µg/mL (%)
Field: numeric (%). Do not append units.

So what does the record say about Gal3-INSR Blocking @ 3 µg/mL for IMT006 (TB006) (antibody, V domains shown, anti-Gal3 antibody) VH: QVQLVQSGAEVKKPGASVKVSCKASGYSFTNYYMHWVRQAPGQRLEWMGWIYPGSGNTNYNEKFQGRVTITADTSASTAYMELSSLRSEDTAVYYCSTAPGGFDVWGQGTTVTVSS VL: DIVMTQTPLSLSVTPGQPASISCKSSKSLLHSDGITYLYWYLQKPGQSPQLLIYRMSNLASGVPDRFSGSGSGTDFTLKISRVEAEDVGVYYCAQMLEFPLTFGQGTKLEIK ?
100

So what does the record say about Gal3-INSR Blocking @ 3 µg/mL for 19B5.2E6 (antibody, V domains shown) VH: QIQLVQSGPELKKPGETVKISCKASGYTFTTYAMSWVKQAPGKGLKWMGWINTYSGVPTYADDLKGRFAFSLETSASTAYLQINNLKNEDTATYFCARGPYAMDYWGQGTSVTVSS VL: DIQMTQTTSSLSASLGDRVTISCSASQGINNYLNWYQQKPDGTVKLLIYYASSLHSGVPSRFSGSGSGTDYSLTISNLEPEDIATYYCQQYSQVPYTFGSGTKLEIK ?
100

So what does the record say about Gal3-INSR Blocking @ 3 µg/mL for 13A12.2E5 (antibody, V domains shown) VH: QIQLVQSGPELKKPGETVKISCKTSGYKFKTYVMSWVKQAPGKALKWMGWINTYSGVPTYADDFKGRFAFSLETSASTAYLEIINLKNEDTATYFCARDGNYGDPMDYWGQGTSVTVSS VL: DVVMTQTPLTLSVAIGQPASISCKSSQSLLYTNGKTYLNWLLQRPGQSPKRLIYLLSKLDSGVPDRFSASGSGTDFTLKISRVEAEDLGVYYCLQSTHFPLTFGAGTKLEMK ?
97

Values were extracted from patent US20230094463A1.
